Each recorded value in this set is attributed to the supplement of paper PMC5919970.

The following molecules are listed with their measured fractional viability values.
System: TYKNU
Experiment: fractional viability relative to vehicle; TYKNU is a high-grade serous ovarian cancer line; higher = less growth inhibition
Settings: 2uM; 72 h; genotype: OPA1 knockout (sgOPA1 #2)
Over roughly 2,000 compounds, “fractional viability relative to vehicle” has its median near 0.92; the lowest 2% begin near 0.11. Shown is part of a subset that was picked to be rich in the lowest values.

Query Smiles	fractional viability
COc1cc(O)c(CC=C(C)C)c(O)c1C(=O)/C=C/c1ccc(O)cc1	0.841
CN[C@@H](C)C(=O)N[C@H](C(=O)N1CCC[C@H]1c1nc(C(=O)c2ccc(F)cc2)cs1)C1CCCCC1	0.719
C[C@@]1(c2cc(-c3cncnc3)c(F)cc2F)CCSC(N)=N1	1.12
O=C1C(=O)N(Cc2ccc(Cl)c(Cl)c2)c2ccccc21	0.461
NS(=O)(=O)NCCNc1nonc1/C(=N/O)Nc1ccc(F)c(Br)c1	0.817
